Data credit: patent US6984719B1

Target: human FP receptor (Homo sapiens, UniProt P43088)
Construct: expressed in transfected cells
Sequence (P43088 whole entry): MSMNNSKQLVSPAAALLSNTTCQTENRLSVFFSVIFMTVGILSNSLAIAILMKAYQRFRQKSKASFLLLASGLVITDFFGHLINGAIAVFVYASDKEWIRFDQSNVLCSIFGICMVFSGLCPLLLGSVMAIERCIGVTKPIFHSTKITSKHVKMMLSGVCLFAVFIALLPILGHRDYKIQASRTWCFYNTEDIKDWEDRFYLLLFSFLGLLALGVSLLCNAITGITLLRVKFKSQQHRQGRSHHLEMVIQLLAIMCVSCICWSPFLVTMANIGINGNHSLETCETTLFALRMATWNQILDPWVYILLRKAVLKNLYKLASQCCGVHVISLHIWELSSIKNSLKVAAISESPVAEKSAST
Assay: PGF2α-induced phosphoinositide hydrolysis (inositol phosphate synthesis) in HEK293 cells expressing FP receptor
Format: cell-based
Details: HEK293 cells stably expressing human FP receptor; 1 μM PGF2α; read-out: half maximal inhibitory concentration, inositol phosphate synthesis
Ends that are not written are not given here.
property.label: IC50

ILGHRDYK-OH [PCP-8, ilghrdyk]; < 100 µM

// query Reported IC50 for WEDRFYLL [PCP-10, wedrfyll] : what is it?
// result < 100 µM

---

The substances listed here are annotated with their % inhibition of maximal response.
Target: FP receptor (Sus scrofa, UniProt C6GAG8)
Construct: from tissue; host or cells: eyecup / retinal microvessels of newborn pigs pretreated with ibuprofen
Sequence (C6GAG8 1-362): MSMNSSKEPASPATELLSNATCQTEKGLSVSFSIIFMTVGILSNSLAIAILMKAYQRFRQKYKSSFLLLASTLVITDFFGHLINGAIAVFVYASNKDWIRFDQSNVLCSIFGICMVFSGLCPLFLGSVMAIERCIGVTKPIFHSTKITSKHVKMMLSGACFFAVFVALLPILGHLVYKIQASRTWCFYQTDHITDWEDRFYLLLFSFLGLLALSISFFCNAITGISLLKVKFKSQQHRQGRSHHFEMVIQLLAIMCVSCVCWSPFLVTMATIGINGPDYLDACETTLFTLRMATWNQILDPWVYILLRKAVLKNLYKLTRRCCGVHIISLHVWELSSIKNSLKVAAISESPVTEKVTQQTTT
Test: Porcine eyecup model of ex vivo vasomotricity assay, PGF2α-induced constriction of retinal microvessels
Set-up: species or system pig
Details: 100 μM peptide; 10^−7 M PGF2α; calculated as 100-percent vasomotor response
The reply should contain only the number, in %.

YQDRFYLL (Peptide antagonist derived from the sequence of the Prostaglandin F2-alpha receptor.) [PCP-14]; 64.0

// query Reported % inhibition of maximal response for ILGWRDYK (Peptide antagonist derived from the sequence of the Prostaglandin F2-alpha receptor.) [PCP-13.22] : what is it?
// result 83.4

// query How about this substance: ILGHRNYK (Peptide antagonist derived from the sequence of the Prostaglandin F2-alpha receptor.) [PCP-13.14]
// result 59.7

// query How about this substance: ILGHRDYK (Peptide antagonist derived from the sequence of the Prostaglandin F2-alpha receptor.) [PCP-13]
// result 80.0

// query How about this substance: SNVLCSIF (Peptide antagonist derived from the sequence of the Prostaglandin F2-alpha receptor.) [PCP-15]
// result 88.1

---

Target: FP receptor (Sus scrofa)
Construct: from tissue; host or cells: eyecup / retinal microvessels of newborn pigs pretreated with ibuprofen
Assay: Porcine eyecup model of ex vivo vasomotricity assay, PGF2α-induced constriction of retinal microvessels
Design: species or system pig
Settings: 100 μM peptide; 10^−7 M PGF2α; compared to maximal constriction without peptide
Square brackets hold non-standard residues; d marks the D form. Ends that are not written are not given here.
The substances listed here are annotated with their % Vasomotor response (of max constriction).
Be sure to follow the number with its unit.

// query Reported % Vasomotor response (of max constriction) for WEDRFYLL [PCP-10, wedrfyll] : what is it?
// result 20.0%

// query How about this substance: ILGFRDYK (Peptide antagonist derived from the sequence of the Prostaglandin F2-alpha receptor.) [PCP-13.11]
// result 13.0%

// query How about this substance: ILAHRDYK (Peptide antagonist derived from the sequence of the Prostaglandin F2-alpha receptor.) [PCP-13.7]
// result 23.8%

// query How about this substance: SNVLCSIF (Peptide antagonist derived from the sequence of the Prostaglandin F2-alpha receptor.) [PCP-15]
// result 11.9%

// query How about this substance: ILGHRDY-amide ([dI][dL]G[dH][dR][dD][dY]-NH2) [PCP-13.20]
// result 49.6%

// query How about this substance: ILGHRDYK-amide ([dI][dL]G[dH][dR][dD][dY][dK]-NH2) [PCP-13.21]
// result 46.2%

// query How about this substance: ILGHRDYK (Peptide antagonist derived from the sequence of the Prostaglandin F2-alpha receptor.) [PCP-13]
// result 20.0%

// query How about this substance: YQDRFYLL (Peptide antagonist derived from the sequence of the Prostaglandin F2-alpha receptor.) [PCP-14]
// result 36.0%

// query How about this substance: ILGHRNYK (Peptide antagonist derived from the sequence of the Prostaglandin F2-alpha receptor.) [PCP-13.14]
// result 40.3%

// query How about this substance: ILGHQDYK (Peptide antagonist derived from the sequence of the Prostaglandin F2-alpha receptor.) [PCP-13.18]
// result 30.0%

// query How about this substance: ILGWRDYK (Peptide antagonist derived from the sequence of the Prostaglandin F2-alpha receptor.) [PCP-13.22]
// result 16.6%
